# system: HIF-2α HIS TAG-PASB Domain (Homo sapiens)
# Construct: 100 nM HIF-2α HIS TAG-PASB Domain
# experiment-notes: HIF-2α Scintillation Proximity Assay (SPA)
# Format: binding
# condition-set: read-out: Scintillation Proximity Assay IC50
In this section we review reported IC50 values for a set of compounds.

{"compound": "O=S(=O)(c1ccc(OC2CCc3ncccc32)c2c1[C@H](O)C(F)(F)C2)C(F)(F)F (stereo partly drawn)", "IC50": "> 1000 nM"}

QUERY: Entry O/N=C1/c2c(C(F)(F)F)ccc(OCCCF)c2[C@@H](F)C1(F)F [Compound 581] has what IC50?
RESULT: < 50 nM

QUERY: Check CS(=O)(=O)c1ccc(OC(CF)CF)c2c1[C@H](O)C(F)(F)[C@@H]2F too.
RESULT: 250 to 1000 nM

QUERY: Check N#Cc1c(Oc2cc(F)cc(Cl)c2)ccc2c1C(O)CS2(=O)=O (stereo not drawn) too.
RESULT: 50 to 249 nM

###

In this section we review reported IC50 values for a set of compounds.
# system: HIF-2α HIS TAG-PASB Domain (Homo sapiens)
# Construct: 100 nM HIF-2α HIS TAG-PASB Domain
# experiment-notes: HIF-2α Scintillation Proximity Assay (SPA)
# Format: binding
# condition-set: read-out: Scintillation Proximity Assay IC50

{"compound": "O=S(=O)(c1ccc(Oc2cc(F)cc(F)c2)c2c1CCC2)C(F)F", "system": "HIF-2α HIS TAG-PASB Domain (Homo sapiens)", "IC50": "> 1000 nM"}
{"compound": "O=S(=O)(c1ccc(-c2ccc(Cl)cc2)c2c1[C@H](O)C(F)(F)C2)C(F)(F)F", "system": "HIF-2α HIS TAG-PASB Domain (Homo sapiens)", "IC50": "50 to 249 nM"}
{"compound": "CCCOc1ccc(S(=O)(=O)C(F)(F)F)c2c1CC(F)(F)C2O (stereo not shown)", "system": "HIF-2α HIS TAG-PASB Domain (Homo sapiens)", "IC50": "50 to 249 nM"}

QUERY: Entry O=S(=O)(c1ccc(Oc2cc(F)cc(Cl)c2)c(CCCO)c1)C(F)(F)F has what IC50?
RESULT: > 1000 nM

###

In this section we review reported pIC50 values for a set of compounds.
# system: HIF-2α HIS TAG-PASB Domain (Homo sapiens, UniProt Q99814)
# Construct: 100 nM HIF-2α HIS TAG-PASB Domain
# Sequence (Q99814 240-350 limits assumed): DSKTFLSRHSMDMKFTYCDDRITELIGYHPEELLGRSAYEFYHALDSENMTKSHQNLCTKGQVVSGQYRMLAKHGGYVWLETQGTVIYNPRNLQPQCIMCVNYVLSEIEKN
# experiment-notes: HIF-2α Scintillation Proximity Assay (SPA)
# Assay type: binding
# condition-set: read-out: Scintillation Proximity Assay IC50
pIC50: −log10 of the molar value.

Below, 10 compounds whose answers are already recorded.
{"compound": "C[C@@]1(F)Cc2c(Oc3cc(F)cc(C#N)c3)ccc(S(C)(=O)=O)c2[C@@H]1O", "pIC50": "< 6.00"}
{"compound": "O[C@H]1c2c(OCC(F)F)ccc(C(F)(F)F)c2[C@H](F)C1(F)F", "pIC50": "< 6.00"}
{"compound": "CS(=O)(=O)N[C@H]1C[C@@H](Oc2ccc(S(=O)(=O)C(F)(F)F)c3c2CC(F)(F)[C@H]3O)C1", "pIC50": "< 6.00"}
{"compound": "CC(=O)Nc1ccc(S(=O)(=O)C(F)(F)F)c2c1CCC2O (stereo not shown)", "pIC50": "< 6.00"}
{"compound": "N#Cc1cc(F)cc(Oc2ccc3c(c2Br)C(=O)C(F)(F)S3(=O)=O)c1", "pIC50": "< 6.00"}
{"compound": "N#Cc1ccc(OCC(F)F)c2c1[C@H](O)C(F)(F)C2", "pIC50": "< 6.00"}
{"compound": "CS(=O)(=O)c1ccc(O[C@H]2C[C@](F)(C#N)C2)c2c1[C@H](O)C(F)(F)[C@@H]2F", "pIC50": "> 7.30"}
{"compound": "O=S(=O)(c1ccc(OC2CCOCC2)c2c1C(O)C(F)(F)C2)C(F)F (stereo not shown)", "pIC50": "6.60 to 7.30"}
{"compound": "C=CCC1(O)c2c(S(=O)(=O)C(F)F)ccc(Oc3cc(F)cc(F)c3)c2CC1(F)F (stereo not shown)", "pIC50": "< 6.00"}
{"compound": "N#Cc1c(Oc2cc(F)cc(Cl)c2)ccc2c1[C@@H](O)CS2(=O)=O", "pIC50": "> 7.30"}

QUERY: Entry O=Cc1c(S(=O)(=O)C(F)(F)F)ccc(Oc2cc(F)cc(Cl)c2)c1Cl has what pIC50?
RESULT: > 7.30

QUERY: Check COCCOc1ccc(S(=O)(=O)C(F)(F)F)c2c1CCC2O (stereo not shown) too.
RESULT: < 6.00

QUERY: Check CS(=O)(=O)c1ccc(Nc2cncc(Cl)c2)c2c1C(O)CC2 (stereo not shown) too.
RESULT: < 6.00

QUERY: Check CS(=O)(=O)c1ccc(Oc2cc(F)cc(C#N)c2)c2c1[C@H](O)C(F)(Cl)C2 (stereo partly shown) too.
RESULT: 6.60 to 7.30

QUERY: Check O=S(=O)(c1ccc(Oc2cccc3[nH]ncc23)c2c1[C@H](O)C(F)(F)C2)C(F)(F)F too.
RESULT: > 7.30

QUERY: Check N#Cc1cc(F)cc(Oc2ccc3c(c2C#N)[C@@H](O)CS3(=O)=O)c1 too.
RESULT: < 6.00

QUERY: Check Cc1c(Cl)cccc1Oc1ccc(S(=O)(=O)C(F)(F)F)cc1Br too.
RESULT: < 6.00

QUERY: Check COc1ccc(S(C)(=O)=O)c2c1CCC2O (stereo not shown) too.
RESULT: < 6.00

QUERY: Check N#Cc1cc(F)cc(Oc2ccc(S(=O)(=O)C(F)F)c(C#N)c2Br)c1 too.
RESULT: < 6.00

QUERY: Check CS(=O)(=O)c1ccc(Oc2cc(F)cc(Cl)c2)c2c1C(O)CC2 (stereo not shown) too.
RESULT: 6.60 to 7.30

QUERY: Check CC(Oc1ccc(S(=O)(=O)C(F)(F)F)c2c1CC(F)(F)C2O)C1CC1 (stereo not shown) too.
RESULT: > 7.30

QUERY: Check CC1(O)c2c(ccc(Oc3cc(F)cc(C#N)c3)c2C(F)F)S(=O)(=O)C1(F)F (stereo not shown) too.
RESULT: 6.60 to 7.30

QUERY: Check O=S(=O)(c1ccc(Sc2cc(F)cc(Cl)c2)c2c1[C@H](O)CC2)C(F)F too.
RESULT: < 6.00

QUERY: Check O=S(=O)(c1ccc(OCc2ccccc2)c2c1C(O)C(F)(F)C2)C(F)(F)F (stereo not shown) too.
RESULT: 6.60 to 7.30

QUERY: Check N#Cc1c(Oc2cc(F)cc(F)c2)ccc2c1C(O)C(F)S2(=O)=O (stereo not shown) too.
RESULT: < 6.00

QUERY: Check N#Cc1cc(F)cc(Oc2ccc(S(=O)(=O)C(F)F)c(CO)c2Br)c1 too.
RESULT: > 7.30

QUERY: Check CS(=O)(=O)c1ccc(Oc2cc(F)cc(C#N)c2)c2c1[C@H](O)C(F)(F)[C@@H]2F too.
RESULT: > 7.30

QUERY: Check CCCOc1ccc(C(F)(F)F)c2c1CC(F)(F)[C@H]2O too.
RESULT: > 7.30

QUERY: Check CC(=O)N[C@H]1C[C@@H](Oc2ccc(S(=O)(=O)C(F)(F)F)c3c2CC(F)(F)[C@H]3O)C1 too.
RESULT: < 6.00

QUERY: Check O=S(=O)(c1ccc(Oc2cncc(Cl)c2)c2c1[C@H](O)CC2)C(F)(F)F too.
RESULT: 6.00 to 6.60

QUERY: Check N#Cc1ccc(Oc2cc(F)cc(F)c2)c2c1[C@H](O)CC2 too.
RESULT: < 6.00

###

# system: HIF-2α HIS TAG-PASB Domain (Homo sapiens, UniProt Q99814)
# Construct: 100 nM HIF-2α HIS TAG-PASB Domain
# experiment-notes: HIF-2α Scintillation Proximity Assay (SPA)
# Format: binding
# condition-set: read-out: Scintillation Proximity Assay IC50
# Experimental: The total assay volume was about 100 μL in the following configuration: 2 μL compound in 100% DMSO, 88 μL buffer with protein and probe and 10 μL of SPA beads. […] The percent inhibition was determined and IC50 values were calculated using the Dotmatics system based on the following equation: % inhibition=[(high control−sample)/(high control−low control)]×100.
In this section we review reported IC50 values for a set of molecules.

Below, 2 molecules whose answers are already recorded.
{"molecule": "CS(=O)(=NC#N)c1ccc(Oc2cncc(C#N)c2)c2c1[C@@H](O)C(F)(F)[C@@H]2F (stereo partly shown)", "IC50": "> 1000 nM"}
{"molecule": "C[C@]1(C#N)C[C@H](Oc2ccc(S(=O)(=O)C(F)(F)F)c3c2C[C@H](F)[C@H]3O)C1", "IC50": "50 to 249 nM"}

QUERY: Entry O=S(=O)(CF)c1ccc(Oc2cc(F)cc(Cl)c2)c(Br)c1 has what IC50?
RESULT: 250 to 1000 nM

QUERY: Check NC(=O)Cc1ccc(S(=O)(=O)C(F)(F)F)c2c1CC[C@H]2O too.
RESULT: > 1000 nM
